Reference for the values: the RNAGym collection of RNA variant scans (doi:10.1093/nar/gkz1192)

B1: CPEB3 Ribozyme (parent)
chain: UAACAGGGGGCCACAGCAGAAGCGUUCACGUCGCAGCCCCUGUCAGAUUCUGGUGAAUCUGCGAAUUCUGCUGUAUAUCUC

# Variants of: B1
# assay-text: self-cleavage, relative activity (ratio to wild type); higher = more cleavage; in vitro, sequencing
Decide by self-cleavage: equal to or exceeding 0.3 means Yes, less means No.

Prompt: Say whether U26C U74C shows self-cleavage of 0.3 or more.
Completion: Yes

Prompt: Say whether A3G G16C shows self-cleavage of 0.3 or more.
Completion: Yes

Prompt: Say whether G24A U74G shows self-cleavage of 0.3 or more.
Completion: No

Prompt: Say whether U25C C27U shows self-cleavage of 0.3 or more.
Completion: Yes

Prompt: Say whether G10C A57G shows self-cleavage of 0.3 or more.
Completion: No
